Form field: log10(CC50) (one value per entry).
Test protocol: Cytotoxicity against african green monkey Vero cells
Assay type: cell-based
Assay setup: chlorocebus sabaeus
Where a name gives a salt, the structure may show the parent alone.
Property label: log10(CC50) (log10 of the value in µM)

>  <Compound>
COc1cc2c(cc1O)C[C@@H]1NCCc3cc(OC)c(OC)c-2c31

>  <log10(CC50)>
2.22

$$$$
>  <Compound>
COc1cc2c(cc1O)C[C@@H]1NCCc3cc(O)c(OC)c-2c31

>  <log10(CC50)>
1.98

$$$$
>  <Compound>
COc1cc2c(cc1O)C[C@H]1c3c(cc(OC)c(OC)c3-2)CCN1C

>  <log10(CC50)>
2.40

$$$$
>  <Compound>
CO[C@H]1c2ccccc2-c2c3c(cc4c2[C@@H]1N(C)C[C@@H]4O)OCO3

>  <log10(CC50)>
1.83

$$$$
>  <Compound>
COc1c2c3c(c4c1OCO4)-c1ccccc1[C@H](O)[C@H]3N(C)CC2

>  <log10(CC50)>
2.03

$$$$
>  <Compound>
COc1ccc2c(c1)[C@H](O)[C@@H]1c3c(cc4c(c3-2)OCO4)CCN1C

>  <log10(CC50)>
0.85

$$$$
>  <Compound>
O=C1c2ccccc2-c2c3c(cc4ccnc1c24)OCO3

>  <log10(CC50)>
1.68

$$$$
>  <Compound>
CO[C@H]1c2ccccc2-c2c3c(cc4c2[C@@H]1NCC4)OCO3 [PACHYPODANTINE]

>  <log10(CC50)>
1.40

$$$$
>  <Compound>
COc1cc2ccnc3c2c(c1OC)-c1ccccc1C3=O

>  <log10(CC50)>
2.70

$$$$
>  <Compound>
COc1cc2c3c(c1OC)-c1ccccc1C[C@H]3N(C)CC2.Cl [NUCIFERINE HYDROCHLORIDE]

>  <log10(CC50)>
2.64

$$$$
>  <Compound>
COc1cc2c(cc1O)C[C@H]1c3c(cc(OC)c(O)c3-2)CCN1C.Cl [ISOBOLDINE HYDROCHLORIDE]

>  <log10(CC50)>
2.34

$$$$
>  <Compound>
COc1ccc2c(c1)[C@H](OC)[C@@H]1c3c(cc4c(c3-2)OCO4)CCN1C [OLIVERINE HCL]

>  <log10(CC50)>
0.95

$$$$
>  <Compound>
COc1cc2c(cc1O)C[C@H]1c3c(cc4c(c3-2)OCO4)CCN1C

>  <log10(CC50)>
1.67

$$$$
>  <Compound>
COc1cc2c(cc1OC)-c1c(OC)c(OC)cc3c1[C@H](C2)N(C(C)=O)CC3

>  <log10(CC50)>
2.53

$$$$

###

Examples of molecules with documented MNTC follow.
Test protocol: Cytotoxicity against african green monkey Vero cells assessed as drug concentration at which no cellular alteration was microscopically detected
Type: cell-based
Assay setup: chlorocebus sabaeus, read-out: MTC

>  <Molecule>
COc1cc2c(cc1O)C[C@H]1c3c(cc(O)c(OC)c3-2)CCN1C [BOLDINE]

>  <MNTC>
125 µM

$$$$
>  <Molecule>
COc1cc2c(cc1O)C[C@H]1c3c(cc4c(c3-2)OCO4)CCN1C [CASSYTHICINE]

>  <MNTC>
31 µM

$$$$
>  <Molecule>
COc1cc2c(cc1O)C[C@@H]1NCCc3cc4c(c-2c31)OCO4 [ACTINODAPHNINE]

>  <MNTC>
95 µM

$$$$
>  <Molecule>
COc1cccc2c1C(=O)c1nccc3cc4c(c-2c13)OCO4 [OXOSTEPHANINE]

>  <MNTC>
15 µM

$$$$
>  <Molecule>
CO[C@H]1c2ccccc2-c2c3c(cc4c2[C@@H]1NCC4)OCO3 [PACHYPODANTINE]

>  <MNTC>
20 µM

$$$$
>  <Molecule>
CO[C@H]1c2ccccc2-c2c3c(cc4c2[C@@H]1N(C)C[C@@H]4O)OCO3 [PACHYSTAUDINE]

>  <MNTC>
62 µM

$$$$
>  <Molecule>
COc1cc2ccnc3c2c(c1OC)-c1ccccc1C3=O [LYSICAMINE]

>  <MNTC>
250 µM

$$$$
>  <Molecule>
COc1cc2c(cc1OC)-c1c(OC)c(OC)cc3c1[C@H](C2)N(C(C)=O)CC3

>  <MNTC>
250 µM

$$$$
>  <Molecule>
COc1cc2c(cc1O)C[C@@H]1NCCc3cc(OC)c(OC)c-2c31 [LAUROTETANINE]

>  <MNTC>
62 µM

$$$$
